B1: library; numbered along this chain (parent)
chain: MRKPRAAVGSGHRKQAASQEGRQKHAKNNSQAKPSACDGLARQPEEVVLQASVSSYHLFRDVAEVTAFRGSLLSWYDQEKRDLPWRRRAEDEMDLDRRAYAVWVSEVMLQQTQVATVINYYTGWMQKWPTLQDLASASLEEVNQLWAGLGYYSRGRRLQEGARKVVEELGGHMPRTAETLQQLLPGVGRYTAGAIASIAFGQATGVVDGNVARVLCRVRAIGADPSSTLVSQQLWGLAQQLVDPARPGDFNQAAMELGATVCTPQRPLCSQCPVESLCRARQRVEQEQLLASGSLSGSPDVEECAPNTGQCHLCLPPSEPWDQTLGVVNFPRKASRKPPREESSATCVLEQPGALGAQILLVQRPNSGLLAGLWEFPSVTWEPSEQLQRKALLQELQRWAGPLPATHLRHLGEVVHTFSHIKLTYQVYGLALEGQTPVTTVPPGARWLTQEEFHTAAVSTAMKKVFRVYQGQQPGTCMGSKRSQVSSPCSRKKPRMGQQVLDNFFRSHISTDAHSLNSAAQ

# Variants of: B1
# test_protocol: 8OG:A repair function score (normalized; synonymous = 0, nonsense = -1) (normalized log-likelihood score); higher = more repair activity (WT-like);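 also: cells sorted at 72 h after reporter transfection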
# details: with 8OG:A DNA repair reporter (GFP) in HEK-293 MUTYH KO cells
Classification field: label 1 = 8OG:A repair function score at or over -0.7; label 0 = 8OG:A repair function score under -0.7.

Consider the following illustrative entries.
G248F ... label 0
L290V ... label 1

// inclusive: 8OG:A repair function score at least -0.7? input: `A212I`
label 1

Data provenance is the supplement of paper PMC11908140.
